Give pIC50 for every item shown.
- System: SARS-CoV-2 (B.1)
- Assay protocol: microbe, parasite or virus in culture
- Type: cell-based
// returns pIC50 (minus log10 of molar concentration), number only

// recorded pIC50 for `N#C[C@@]1(c2ccc3c(N)ncnn23)O[C@H](COC(=O)C2CCCCC2)[C@@H](O)[C@H]1O` : 6.48

# pIC50 (compound: N#C[C@@]1(c2ccc3c(N)ncnn23)O[C@H](CO)[C@@H](O)[C@H]1O [GS-441524, reference compound] ) is 5.64

###

- Test system: SARS-CoV-2 (B.1)
- Assay protocol: microbe, parasite or virus in culture
- Format: cell-based
- Condition description: Severe acute respiratory syndrome coronavirus 2, Vero C1008, 48 h
Provide the reported pIC50 of each item.
pIC50 is a log-scale quantity: -log10 of the concentration expressed in molar.

Form field pIC50, entry CCC(CC)C(=O)OC[C@H]1O[C@@](C#N)(c2ccc3c(N)ncnn23)[C@H](O)[C@@H]1O [ATV011] : 5.67

The molecule CCCC(=O)OC[C@H]1O[C@@](C#N)(c2ccc3c(N)ncnn23)[C@H](O)[C@@H]1O [ATV009] showed pIC50 equal to 5.88

Data point: CC(C)C(=O)OC[C@H]1O[C@@](C#N)(c2ccc3c(N)ncnn23)[C@H](O)[C@@H]1O [ATV006] ; pIC50 = 5.87

Form field pIC50, entry CC(C)(C)C(=O)OC[C@H]1O[C@@](C#N)(c2ccc3c(N)ncnn23)[C@H](O)[C@@H]1O [ATV018] : 6.03
